For each of the compounds below, state its Ki.
- target.entity: human 5-hydroxytryptamine-2C (h5-HT2C) receptor (Homo sapiens)
- Construct: expressed in transfected cells; host or cells: CHO (Chinese Hamster Ovary) cells; membrane preparation
- Sequence (P28335 33-458): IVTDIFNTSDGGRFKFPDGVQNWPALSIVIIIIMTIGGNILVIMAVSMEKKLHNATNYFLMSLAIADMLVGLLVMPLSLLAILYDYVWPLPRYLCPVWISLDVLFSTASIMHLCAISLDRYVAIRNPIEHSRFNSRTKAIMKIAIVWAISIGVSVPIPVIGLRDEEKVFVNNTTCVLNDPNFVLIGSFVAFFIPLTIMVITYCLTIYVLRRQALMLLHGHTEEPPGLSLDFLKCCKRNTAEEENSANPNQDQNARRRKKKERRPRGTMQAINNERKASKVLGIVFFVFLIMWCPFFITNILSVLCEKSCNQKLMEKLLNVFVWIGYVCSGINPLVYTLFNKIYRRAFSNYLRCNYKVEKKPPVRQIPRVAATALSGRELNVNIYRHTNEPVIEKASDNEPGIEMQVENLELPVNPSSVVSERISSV
- test.summary: [125I]DOI binding to membranes of CHO cells expressing the human 5-HT2C receptor
- experimental.conditions: read-out: 5-HT2C Binding Ki avg

Task: Which Ki value belongs to Cc1ccccc1-c1cc(F)cc2cc(CN)oc12 ?
Result: 1 to 10 nM

Task: Which Ki value belongs to NCc1cc2cc(F)cc(-c3cc(Cl)ccc3Cl)c2o1 ?
Result: 0.01 to 1 nM

Task: Which Ki value belongs to NCc1cc2cc(F)cc(-c3c(Cl)cccc3Cl)c2o1 ?
Result: 0.01 to 1 nM

Task: Which Ki value belongs to NCc1cc2cc(F)cc(-c3ccc(Cl)cc3Cl)c2o1 ?
Result: 0.01 to 1 nM

Task: Which Ki value belongs to NCc1cc2cccc(-c3c(Cl)cccc3Cl)c2o1 ?
Result: 0.01 to 1 nM
